Target: recombinant 5-HT2C receptor (human) (Homo sapiens, UniProt P28335)
Sequence (P28335 33-458): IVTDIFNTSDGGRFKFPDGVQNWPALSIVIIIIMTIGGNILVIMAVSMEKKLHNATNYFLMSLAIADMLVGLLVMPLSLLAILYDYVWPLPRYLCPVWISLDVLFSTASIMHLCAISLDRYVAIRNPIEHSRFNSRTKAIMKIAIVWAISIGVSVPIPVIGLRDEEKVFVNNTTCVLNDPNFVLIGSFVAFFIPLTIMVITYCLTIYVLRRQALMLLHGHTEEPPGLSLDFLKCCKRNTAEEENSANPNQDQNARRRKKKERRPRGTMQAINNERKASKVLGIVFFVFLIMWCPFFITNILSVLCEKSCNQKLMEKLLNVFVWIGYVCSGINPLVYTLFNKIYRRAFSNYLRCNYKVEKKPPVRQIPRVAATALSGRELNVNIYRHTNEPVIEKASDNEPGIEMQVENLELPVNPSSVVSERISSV
Test: 5-HT2C competition binding assay ([125I]-DOI, SPA)
Where a name gives a salt, the structure may show the parent alone.
OBSERVED_PROPERTY: pKi
Remember the convention: pKi equals -log10 of concentration in molar.

Req: pKi for Cc1ccc2c(c1)Oc1sc(C)cc1C(N1CCN(CC(C)(C)C(=O)O)CC1)=N2 [Example 2, dihydrochloride] ?
Resp: 6.05

====

Target: UniProt P28221
Sequence (P28221 whole entry, species assumed): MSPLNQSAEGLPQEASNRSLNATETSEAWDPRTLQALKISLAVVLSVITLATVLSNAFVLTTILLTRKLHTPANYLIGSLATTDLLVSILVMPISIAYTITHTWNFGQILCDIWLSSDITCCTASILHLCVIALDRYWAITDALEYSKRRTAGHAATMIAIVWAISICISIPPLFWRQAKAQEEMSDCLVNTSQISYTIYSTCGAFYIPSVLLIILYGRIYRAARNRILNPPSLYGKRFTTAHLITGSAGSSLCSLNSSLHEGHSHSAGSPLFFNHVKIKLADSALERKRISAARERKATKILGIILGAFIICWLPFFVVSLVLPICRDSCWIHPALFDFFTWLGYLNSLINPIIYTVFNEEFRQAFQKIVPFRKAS
Structures can show the parent of a compound that is named as a salt.
OBSERVED_PROPERTY: Ki

Req: Ki for Cc1ccc2c(c1)Oc1sc(C)cc1C(N1CCN(CC(C)(C)C(=O)O)CC1)=N2 [Example 2, dihydrochloride] ?
Resp: > 3.98 µM

====

Molecular target: UniProtKB P23975
Sequence (P23975 whole entry): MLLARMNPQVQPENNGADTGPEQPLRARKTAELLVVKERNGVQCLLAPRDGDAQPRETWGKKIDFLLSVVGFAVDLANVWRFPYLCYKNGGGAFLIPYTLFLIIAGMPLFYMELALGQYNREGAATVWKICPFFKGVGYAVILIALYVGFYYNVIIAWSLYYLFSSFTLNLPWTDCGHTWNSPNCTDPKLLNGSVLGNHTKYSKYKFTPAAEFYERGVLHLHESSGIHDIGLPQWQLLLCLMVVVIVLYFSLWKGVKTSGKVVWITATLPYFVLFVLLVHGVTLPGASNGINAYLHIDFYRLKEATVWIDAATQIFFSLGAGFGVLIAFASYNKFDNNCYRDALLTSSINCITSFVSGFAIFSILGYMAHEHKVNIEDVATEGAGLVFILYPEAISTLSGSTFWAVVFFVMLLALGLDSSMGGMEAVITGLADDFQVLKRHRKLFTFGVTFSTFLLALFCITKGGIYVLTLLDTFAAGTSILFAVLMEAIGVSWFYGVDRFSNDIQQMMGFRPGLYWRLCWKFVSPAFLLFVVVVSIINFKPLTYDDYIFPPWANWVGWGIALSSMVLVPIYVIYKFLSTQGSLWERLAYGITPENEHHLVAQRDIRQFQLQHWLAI
Assay: Norepinephrine transporter binding
Counter-ions that a name gives are not always drawn.
OBSERVED_PROPERTY: Ki

Req: Ki for Cc1ccc2c(c1)Oc1sc(C)cc1C(N1CCN(CC(C)(C)C(=O)O)CC1)=N2 [Example 2, dihydrochloride] ?
Resp: > 0.674 µM

====

Target protein (sequence): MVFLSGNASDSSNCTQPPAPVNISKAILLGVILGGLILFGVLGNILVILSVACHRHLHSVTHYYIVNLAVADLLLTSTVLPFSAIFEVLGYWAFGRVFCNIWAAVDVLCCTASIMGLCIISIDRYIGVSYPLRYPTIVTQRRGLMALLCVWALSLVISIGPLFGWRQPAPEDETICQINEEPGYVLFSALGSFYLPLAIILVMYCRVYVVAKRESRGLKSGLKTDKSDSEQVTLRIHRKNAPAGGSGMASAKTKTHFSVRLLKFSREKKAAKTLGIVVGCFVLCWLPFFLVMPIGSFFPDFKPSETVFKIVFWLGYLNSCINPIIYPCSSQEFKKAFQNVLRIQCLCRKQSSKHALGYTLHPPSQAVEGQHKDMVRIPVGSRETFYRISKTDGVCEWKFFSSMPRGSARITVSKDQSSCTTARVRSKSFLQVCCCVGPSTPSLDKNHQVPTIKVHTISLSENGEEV
pKi: −log10 of the molar value. Where a name gives a salt, the structure may show the parent alone.
OBSERVED_PROPERTY: pKi

Req: pKi for Cc1ccc2c(c1)Oc1sc(C)cc1C(N1CCN(CC(C)(C)C(=O)O)CC1)=N2 [Example 2, dihydrochloride] ?
Resp: < 4.98
